Measured Inh (PKA), listed per entry.
test system: PRKACA-PRKAR2A interaction (SmBiT-PRKACA / LgBiT-PRKAR2A), protein kinase A; design: NanoLuc complementation counter-screen in cell extract, PRKACA with PRKAR2A, loss of luminescence, detects NanoLuc interference; settings: counter-screen for NanoLuc interference; 0.5 h, 20 µM; inhibitor

compound	Inh (PKA) [%]
Cc1ccc(C(=O)Nc2ccc(Oc3cc4cnn(C)c4cc3-c3cn[nH]c3)c(F)c2)c(=O)n1-c1ccc(F)cc1 [UM0141582:01, LY2801653]	33.02
c1cncc(CN2CCC(n3ncc4c(N5CCOCC5)nc(-c5ccc6[nH]ccc6c5)nc43)CC2)c1 [UM0142335:01, WAY-600]	7.744
O=C(Nc1ccncc1)c1cc([N+](=O)[O-])ccc1Cl [UM0141773:01, T0070907]	6.091
